Data origin: patent US20200377593A1

# TARGET_UNDER_TEST: T1, human CD47-Fc (human, UniProt Q08722 19-139)
# T1 construct: also called hCD47; not shown: Fc part
# METHOD: BLI (ForteBio), antibody on AHQ tip, human CD47-Fc in solution 100 nM, bivalent
Listing of entries alongside the reported Kd.
The reply should be a number in pM, with the unit left off.

BINDER	Kd (pM)
ADI-29337 (antibody, human IgG1, kappa, V domains shown, Full-length IgG1 kappa expressed in yeast, purified by Protein A) VH: QVQLQESGPGLVKPSETLSLTCTVSGGSINHYYWSWIRQPPGKGLEWIGAIYYSGSTRYNPSLKSRVTISVDTSKNQFSLKLSSVTAADTAVYYCARGKSAFDPWGQGTLVTVSS VL: DIQMTQSPSSVSASVGDRVTITCRASQGISRWLAWYQQKPGKAPKLLIYAASSLQSGVPSRFSGSGSGTDFTLTISSLQPEDFATYYCQQADLHPPLTFGGGTKVEIKR	404
ADI-29345 (antibody, human IgG1, kappa, V domains shown, Full-length IgG1 kappa expressed in yeast, purified by Protein A) VH: QVQLQESGPGLVKPSETLSLTCTVSGGSISHYYWSWIRQPPGKGLEWIGYIYYSGVTTYNPSLKSRVTISVDTSKNQFSLKLSSVTAADTAVYYCARGKTGSTAWGQGTLVTVSS VL: DIQMTQSPSSVSASVGDRVTITCRASQGISRWLAWYQQKPGKAPKLLIYAASSLQSGVPSRFSGSGSGTDFTLTISSLQPEDFATYYCQQTVSFPITFGGGTKVEIKR	403
ADI-26660 (antibody, human IgG1, kappa, V domains shown, Full-length IgG1 kappa expressed in yeast, purified by Protein A) VH: QVQLQESGPGLVKPSETLSLTCTVSGGSISSYYWSWIRQPPGKGLEWIGSIYYSGSTNYNPSLKSRVTISVDTSKNQFSLKLSSVTAADTAVYYCARKQKHFDIWGQGTMVTVSS VL: DIQMTQSPSSVSASVGDRVTITCRASQGISSWLAWYQQKPGKAPKLLIYAASSLQSGVPSRFSGSGSGTDFTLTISSLQPEDFATYYCQQVNHHPWTFGGGTKVEIKR	1350

Now look at this one.
Query string: Value lookup for Kd; key = ADI-29347 (antibody, human IgG1, kappa, V domains shown, Full-length IgG1 kappa expressed in yeast, purified by Protein A) VH: QVQLQESGPGLVKPSETLSLTCTVSGGSIANYYWSWIRQPPGKGLEWIGYTYFSGSTNYNPSLKSRVTISVDTSKNQFSLKLSSVTAADTAVYYCARGKTGSAAWGQGTLVTVSS VL: DIQMTQSPSSVSASVGDRVTITCRASQGISRWLAWYQQKPGKAPKLLIYAASSLQSGVPSRFSGSGSGTDFTLTISSLQPEDFATYYCQQTVSFPITFGGGTKVEIKR
Result string: 710
